B1: library; a variant is named by its letters at N, in order (parent)
chain: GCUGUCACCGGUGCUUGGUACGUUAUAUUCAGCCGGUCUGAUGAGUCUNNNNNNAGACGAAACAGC

- Variants of: B1
- test: FACS-Seq fitted mean relative fluorescence mCherry/BFP with ligand (log10 relative fluorescence); HEK293T overexpressing SLC46A1; ligand concentration (+) FACS-Seq: 6 mM; higher = higher reporter protein expression
- setup-conditions: with (6R,S)-folinic acid; ligand present: yes
Assign class by FACS-Seq fitted mean (log10): not lower than 0.4 means Criterion met; lower than 0.4 means Criterion not met.

Examples with answers:
> print(dat)
   mutant        label.class
1  GCAGGG  Criterion not met
2  GACGUA  Criterion not met
3  GUCGAU  Criterion not met
4  UAACAG      Criterion met
5  GAAUAC  Criterion not met
6  AGACGA  Criterion not met
7  AGCUUG  Criterion not met
8  GGGUAA  Criterion not met

[ask] Kindly determine if FACS-Seq fitted mean (log10) recorded for UAAAGU is above or exactly 0.4.
[reply] Criterion met

[ask] What do we get for UUAAAG ?
[reply] Criterion met

[ask] What do we get for GUCUGC ?
[reply] Criterion not met

[ask] What do we get for GGUUUG ?
[reply] Criterion not met

[ask] What do we get for UAUAUG ?
[reply] Criterion met
